Exercise: state measured EC50 for each of the molecules provided.
Form field: result (number plus unit)

Query: State its EC50 on Adenosine receptor A1 (Cavia porcellus, UniProt P47745): COc1nc(N)c2ncn([C@H]3O[C@@H](CO)[C@H](O)[C@@H]3O)c2n1
Sequence (P47745 whole entry): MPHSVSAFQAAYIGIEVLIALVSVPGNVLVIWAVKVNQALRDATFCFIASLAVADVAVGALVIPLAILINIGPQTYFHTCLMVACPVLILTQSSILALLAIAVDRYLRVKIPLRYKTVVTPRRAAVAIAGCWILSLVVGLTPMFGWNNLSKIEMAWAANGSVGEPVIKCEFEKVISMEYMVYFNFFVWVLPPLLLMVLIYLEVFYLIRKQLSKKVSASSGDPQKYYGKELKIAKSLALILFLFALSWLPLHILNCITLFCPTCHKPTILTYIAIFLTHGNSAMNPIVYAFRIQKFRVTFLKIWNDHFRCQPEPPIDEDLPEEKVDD
Response: 9.33 µM

Query: State its EC50 on Adenosine receptor A1 (Cavia porcellus, UniProt P47745): Nc1nc(OCCC2CCCCC2)nc2c1ncn2C1O[C@@H](CO)[C@H](O)[C@@H]1O (some centres undefined)
Response: 8.71 µM

Query: State its EC50 on Adenosine receptor A1 (Cavia porcellus, UniProt P47745): Nc1nc(OCCC(=O)[C@H]2CC3CCC2C3)nc2c1ncn2C1O[C@@H](CO)[C@H](O)[C@@H]1O (some centres undefined)
Response: 8.71 µM

Query: State its EC50 on Adenosine receptor A1 (Cavia porcellus, UniProt P47745): Nc1nc(Nc2ccccc2)nc2c1ncn2[C@@H]1O[C@H](CO)[C@@H](O)[C@H]1O
Response: 12.6 µM

---

readout: -Log EC50
Please reply with the number alone, leaving off any unit.

Query: State its -Log EC50 on Adenosine A2 receptor (Homo sapiens, UniProt P29275+P29274): Nc1nc(OCCO)nc2c1ncn2C1O[C@@H](CO)[C@H](O)[C@@H]1O (stereo partly drawn)
Response: 7.18

Query: State its -Log EC50 on Adenosine A2 receptor (Homo sapiens, UniProt P29275+P29274): Nc1nc(=O)[nH]c2c1ncn2[C@@H]1O[C@H](CO)[C@@H](O)[C@H]1O
Response: 7.1

Query: State its -Log EC50 on Adenosine A2 receptor (Homo sapiens, UniProt P29275+P29274): CCC(CC)CCOc1nc(N)c2ncn(C3O[C@@H](CO)[C@H](O)[C@@H]3O)c2n1 (stereo partly drawn)
Response: 7.8

Query: State its -Log EC50 on Adenosine A2 receptor (Homo sapiens, UniProt P29275+P29274): O=C(Nc1ncnc2c1ncn2[C@@H]1O[C@H](CO)[C@@H](O)[C@H]1O)[C@H]1C[C@H]2CC[C@@H]1C2
Response: 7.08

Query: State its -Log EC50 on Adenosine A2 receptor (Homo sapiens, UniProt P29275+P29274): CCCCCOc1nc(N)c2ncn(C3O[C@@H](CO)[C@H](O)[C@@H]3O)c2n1 (stereo partly drawn)
Response: 7.94

Query: State its -Log EC50 on Adenosine A2 receptor (Homo sapiens, UniProt P29275+P29274): Nc1nc(OC2CCCC2)nc2c1ncn2[C@H]1O[C@@H](CO)[C@H](O)[C@@H]1O
Response: 7.04

Query: State its -Log EC50 on Adenosine A2 receptor (Homo sapiens, UniProt P29275+P29274): CC(C)COc1nc(N)c2ncn(C3O[C@@H](CO)[C@H](O)[C@@H]3O)c2n1 (stereo partly drawn)
Response: 7.15

Query: State its -Log EC50 on Adenosine A2 receptor (Homo sapiens, UniProt P29275+P29274): CC(C)N(c1ccccc1)c1ncnc2c1ncn2C1O[C@H](CO)[C@@H](O)[C@H]1O (stereo partly drawn)
Response: 7.88
